assayed system: T1, Human TREM2 protein, on cells (human, UniProt Q9NZC2 19-230)
T1 construct: Wild type human TREM2 expressed with DAP12 on HEK293 cells (clone H6), or endogenous on primary human monocyte-derived macrophages; also called hTREM2-HEK; HEK293-H6
T1 sequence: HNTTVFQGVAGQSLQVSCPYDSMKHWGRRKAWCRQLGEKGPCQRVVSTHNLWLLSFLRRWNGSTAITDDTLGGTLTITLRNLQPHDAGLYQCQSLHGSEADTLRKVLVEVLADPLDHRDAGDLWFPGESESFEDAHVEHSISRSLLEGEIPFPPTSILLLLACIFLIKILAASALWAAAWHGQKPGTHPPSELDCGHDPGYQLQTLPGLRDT
assay comment: flow cytometry, HEK293 cells overexpressing human TREM2; also: test concentration or dose not given here
FOB (fold over binding) values, listed per item
// units = fold; emit number, no label

Note to self: FOB (fold over binding) recorded for 21D11 (antibody, IgG2a, V domains shown, Mouse hybridoma antibody, IgG2a, k; also called 21D11.B1; RS8.21D11.B1) VH: QVQLQQSGAELARPGASVKLSCKASGYTFTSYWIQWVKQRPGQGLEWIGTIYPGDGDARYTQKFKGKATLTADKSSSTTYMQLNSLASEDSAVYYCARNGITTAGYYAMDYWGQGTSVTVSS VL: DIQMTQSPASLSVSVGETVTITCRASENIYSNLAWYQQKQGRSPQLLVYAATNLADGVPSRFSGSGSGTQYSLKINSLQSEDFGYYYCQHFWGTPYTFGGGTKVEIK was 8.4

Note to self: FOB (fold over binding) recorded for 54C2.A1 (antibody, V domains shown, Mouse hybridoma antibody, Ig2b, k; also called RS8.54C2.A1) VH: QVHLQQSGSELRSPGSSVKLSCKDFDSEVFPIAYMSWVRQKPGHGFEWIGDILPSIGRRIYGVKFEDKATLDADTVSNTAYLELNSLTSEDSAIYYCTRKDYGSLAYWGQGTLVTVSA VL: DVVMTQTPLSLPVSLGDQASISCRSSQSLVHINGNTYLQWYLQKPGQSPKLLIYKVSNRFSGVPDRFSGSGSGTDFTLRISRVEAEDLGVYFCSQSTHLPYTFGGGTKLEIK was 12.8

Note to self: FOB (fold over binding) recorded for 24B4.A1 (antibody, V domains shown, Mouse hybridoma antibody, Ig2a, k; same entries as 26E2.A3; also called RS8.24B4.A1) VH: QVHLQQSGSELRSPGSSVKLSCKDFDSEVFPISYMSWIRQKPGHGFEWIGDILPSIGGRIYGVKFEDRATLDADTVSNTAYLELNSLTSEDSAIYYCARKDYGSLAYWGQGTLVTVSA VL: DVVMTQTPLSLPVSLGDQASISCRSSQSLVHINGNTYLQWFLQKPGQSPKLLIYKVSNRFSGVPDRFSGSGSGTAFTLKISRVEAEDLGVYFCSQSTHVPYTFGGGTKLEIK was 8.6
